Entry source: PubChem BioAssay (NCI)

Below, each entry is listed with its recorded growth inhibition.
assay: NCI Yeast Anticancer Drug Screen. Data for the cln2 rad14 strain (AID 165);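 note: 0% = growth equal to vehicle treated cultures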; conditions: S. cerevisiae cln2 rad14 strain, at 50.0 µM, active compounds read high
The panel holds about 79,000 compounds, 15% with a hit somewhere; the sample as a whole holds those more often. Where a SMILES comes first, the peptide text is derived from it. The star is where a group is joined. Boc = CC(C)(C)OC(=O)*; OSu = O=C1CCC(=O)N1O*
readout_name: growth inhibition (%)

INSERT INTO measurements (molecule, readout_name, measurement) VALUES
  ('CC(C)NC(=O)OCCN=c1c2ccccc2ccc2ccccc12', 'growth inhibition', 22.7),
  ('COc1ccc(C2CC(c3ccccc3)=NN2c2ccccc2)cc1 (stereo not given)', 'growth inhibition', -7.55),
  ('CC(=O)Oc1cc(Cl)c(Cl)cc1Cl', 'growth inhibition', -30.4),
  ('CCOc1cc(N)nc(N)n1', 'growth inhibition', 5.9),
  ('CC(C)(C)CNC(=S)Nc1ccccc1', 'growth inhibition', 3.55),
  ('CCOC(=O)c1c[nH]c2ccccc2c1=O', 'growth inhibition', -16),
  ('O=C(Nc1ccc(F)c([N+](=O)[O-])c1)Nc1cc(C(F)(F)F)ccc1Cl', 'growth inhibition', -0.4),
  ('Cc1cc(-c2ccccc2)n(C(C(=O)c2ccccc2)c2ccccc2)n1 (stereo not given)', 'growth inhibition', -5.6),
  ('S=c1nc[nH]c2c1ncn2Cc1ccccc1', 'growth inhibition', 1.3),
  ('SC1CCCN(Cc2ccccc2)C1 (stereo not given)', 'growth inhibition', 33.8),
  ('O=CNCC1(c2ccccc2)CCNCC1', 'growth inhibition', -1.7),
  ('OCCN(/N=C\c1ccc2ccccc2c1)C1=NCCN1', 'growth inhibition', -28.2),
  ('CCOC(=O)C1=C2c3ccc4cc(OC)ccc4c3CCC2(C)C(=O)C1 (stereo not given)', 'growth inhibition', -21.1),
  ('NC(=S)n1nc(-c2ccccc2)c(N=Nc2cccc([N+](=O)[O-])c2)c1-c1ccccc1', 'growth inhibition', 19.6),
  ('NC(=O)c1csc([C@@H](O)Cc2ccccc2)n1', 'growth inhibition', -7.7),
  ('CCCCCCC1(/C=C/c2ccc(Cl)c(Cl)c2)OCCCO1', 'growth inhibition', -1.55),
  ('CCC1CN1C(=O)c1cc(C(=O)N2CC2CC)cc(C(=O)N2CC2CC)c1 (stereo not given)', 'growth inhibition', 24.3),
  ('O=C(Nc1ccc2ccccc2c1)OC1CCS(=O)(=O)C1 (stereo not given)', 'growth inhibition', 20.4),
  ('O=c1[nH]c2ccccc2nc1/C=C\NC(=S)Nc1cc(Cl)ccc1Cl', 'growth inhibition', -14.8),
  ('c1ccc(CCc2ccnc3ccccc23)cc1', 'growth inhibition', 1.6),
  ('CCNC(=O)C1Cc2ccccc2N(CC)C1 (stereo not given)', 'growth inhibition', -12.2),
  ('COC(=O)c1nc(N)nc(C(=O)OC)c1C(=O)c1ccccn1', 'growth inhibition', -20.2),
  ('CC(C)(C)OC(=O)NC(Cc1ccc(O)cc1)C(=O)NC(CCCCN)C(=O)NC(Cc1ccc(O)cc1)C(=O)NC(CCCCN)C(=O)ON1C(=O)CCC1=O (stereo not given) (Boc-YKYK-OSu; configuration not given here)', 'growth inhibition', 29.1),
  ('CCOC(=O)C(=O)Cc1cc(=O)n(C)c2ccccc12', 'growth inhibition', 1.8),
  ('Cc1ccc(S(=O)(=O)OCC2(COS(=O)(=O)c3ccc(C)cc3)CCC2)cc1', 'growth inhibition', -8.95),
  ('CC(C)c1cccc2ccccc12', 'growth inhibition', -13.8),
  ('O=C1C(NCCc2ccc(O)c(O)c2)=CC(=O)c2ncccc21', 'growth inhibition', 24.1),
  ('O=C1OC(c2cccc(Cl)c2)=N/C1=C\c1cccc([N+](=O)[O-])c1', 'growth inhibition', 18.9),
  ('COC(=O)Cc1c(C(=O)OC)c(O)cc(O)c1C(=O)OC', 'growth inhibition', -14.4),
  ('C[N+](C)(C)CC(=O)N/N=C(/Cc1nc2ccc([N+](=O)[O-])cc2[nH]c1=O)C(=O)Nc1cc(C(F)(F)F)ccc1Cl', 'growth inhibition', 8.55),
  ('O=C(Nc1ccc(Cl)c(Cl)c1)c1ccc(C(=O)Nc2ccc(Cl)c(Cl)c2)cc1', 'growth inhibition', -18.9),
  ('COCC/C=C\CN(C(C)C)C(C)C', 'growth inhibition', 5.45),
  ('CC(=O)OCCn1c2ccccc2nc2cc3c(cc21)c(Cl)c(=O)c1ccccc13', 'growth inhibition', 25.6),
  ('CCOC(=O)CCC(Cl)(Cl)Cl', 'growth inhibition', -39),
  ('NNC(=O)N/N=C(\CBr)c1ccc(Cl)cc1', 'growth inhibition', -47.6);
